Biological target: T1, rat IL-17A (rat, UniProt Q61453 18-150, limits assumed)
T1 construct: Purified recombinant protein in SPR
T1 sequence (looked up): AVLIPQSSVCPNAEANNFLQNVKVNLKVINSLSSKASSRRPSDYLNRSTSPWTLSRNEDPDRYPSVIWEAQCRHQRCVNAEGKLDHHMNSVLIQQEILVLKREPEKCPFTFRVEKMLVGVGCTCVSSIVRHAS
Experiment: SPR (Biacore 3000), antibody captured by anti-Fc, antigen in solution;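 further: purified recombinant IL-17 antigens flowed over captured antibodies in HBS-EP buffer, global Langmuir one-to-one fit of association and dissociation phases, KD derived from koff over kon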
Listed binders paired with reported Kd
Form entry: value (nM) — number only.

Binder: IL17-h5C5.18 (antibody, V domains shown, IgG; constant regions not specified; also called h5C5.18 (VH.1b-Vk.1c)) VH: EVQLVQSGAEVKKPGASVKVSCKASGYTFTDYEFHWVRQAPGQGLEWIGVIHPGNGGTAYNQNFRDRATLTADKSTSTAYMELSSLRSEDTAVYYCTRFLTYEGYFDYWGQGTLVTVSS VL: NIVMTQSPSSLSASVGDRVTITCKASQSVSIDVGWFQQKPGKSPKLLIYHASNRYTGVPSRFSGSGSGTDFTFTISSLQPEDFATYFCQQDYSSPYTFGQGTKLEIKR
Kd [nM]: 9.15
//
Binder: IL17-h5C5.15 (antibody, V domains shown, IgG; constant regions not specified; also called h5C5.15 (VH.1b-Vk.3a)) VH: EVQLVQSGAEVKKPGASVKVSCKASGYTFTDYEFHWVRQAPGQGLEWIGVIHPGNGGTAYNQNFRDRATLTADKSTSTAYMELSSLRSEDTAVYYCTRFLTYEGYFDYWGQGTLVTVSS VL: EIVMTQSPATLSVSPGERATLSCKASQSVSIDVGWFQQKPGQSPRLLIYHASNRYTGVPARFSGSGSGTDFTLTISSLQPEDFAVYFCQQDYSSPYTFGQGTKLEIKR
Kd [nM]: 5.8

We now examine a further binder.
# input binder: IL17-h10F7.6 (antibody, V domains shown, IgG; constant regions not specified; also called h10F7.6 (VH.1a-Vk.1a)) VH: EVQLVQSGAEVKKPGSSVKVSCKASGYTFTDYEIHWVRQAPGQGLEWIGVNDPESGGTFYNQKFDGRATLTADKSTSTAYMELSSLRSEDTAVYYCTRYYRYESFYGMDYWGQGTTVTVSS VL: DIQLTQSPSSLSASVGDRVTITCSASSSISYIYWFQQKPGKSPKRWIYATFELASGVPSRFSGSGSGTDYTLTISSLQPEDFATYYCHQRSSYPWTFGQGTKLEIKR ; wanted: its Kd
0.919

This collection of values is drawn from patent US20140348834A1.
